Source: the METLIN SMRT retention time set (Domingo-Almenara et al. 2019)

test: gradient 5% acetonitrile 3 min, to 50% in 2 min, to 85% in 15 min, held 3 min, 100 µL/min; conditions: column: Zorbax Extend-C18 2.1 x 50 mm; eluents: water / acetonitrile, 0.1% formic acid
measurement label: RP-LC retention time (s)

Give a short answer stating reported RP-LC retention time for CCOc1ccc(NC(=O)N2CCCC2c2cc(C)on2)cc1 (stereo not given) . 854

Give a short answer stating reported RP-LC retention time for "O=C(c1ccco1)N1CCC[C@H]1c1nc(-c2ccccc2)n[nH]1" . 652

Give a short answer stating reported RP-LC retention time for "Cc1ccc2[nH]c(C(=O)NCc3ccncc3)cc2c1" . 628

Give a short answer stating reported RP-LC retention time for O=C(c1ccc(F)cc1)N1CCCC1c1nc(-c2ccccc2)n[nH]1 (stereo not given) . 726

Give a short answer stating reported RP-LC retention time for "N#Cc1ccc(C(=O)NCc2[nH]nc3ccccc23)cc1" . 699

Give a short answer stating reported RP-LC retention time for "Cc1ccc(-c2ncc(C(=O)Nc3ccc(Br)cc3)c(-c3ccncc3)n2)cc1" . 994

Give a short answer stating reported RP-LC retention time for "CCOC(=O)c1ccc(NC(=O)C2(c3cccs3)CCOCC2)cc1" . 956

Give a short answer stating reported RP-LC retention time for O=C(NCC(c1cccnc1)N1CCc2ccccc2C1)C(=O)NC1CCCCCC1 (stereo not given) . 681

Give a short answer stating reported RP-LC retention time for "CCc1ccc2c(c1)cc(S(=O)(=O)c1ccccc1)c(=O)n2CC(=O)N1CCCCC1" . 620

Give a short answer stating reported RP-LC retention time for "CCc1ccccc1NC(=O)CN1C(=O)NC2(CCCCC2)C1=O" . 761
